target: Hypoxia-inducible factor 1-alpha (Homo sapiens, UniProt Q16665); assay: Inhibition of HIF-1alpha in human HeLa cells transfected with HRE-driven firefly luciferase gene pretreated with compound followed by incubation under normoxic condition for 1 hr followed by hypoxic condition for 12 hrs by dual luciferase reporter gene assay
Sequence (Q16665 whole entry): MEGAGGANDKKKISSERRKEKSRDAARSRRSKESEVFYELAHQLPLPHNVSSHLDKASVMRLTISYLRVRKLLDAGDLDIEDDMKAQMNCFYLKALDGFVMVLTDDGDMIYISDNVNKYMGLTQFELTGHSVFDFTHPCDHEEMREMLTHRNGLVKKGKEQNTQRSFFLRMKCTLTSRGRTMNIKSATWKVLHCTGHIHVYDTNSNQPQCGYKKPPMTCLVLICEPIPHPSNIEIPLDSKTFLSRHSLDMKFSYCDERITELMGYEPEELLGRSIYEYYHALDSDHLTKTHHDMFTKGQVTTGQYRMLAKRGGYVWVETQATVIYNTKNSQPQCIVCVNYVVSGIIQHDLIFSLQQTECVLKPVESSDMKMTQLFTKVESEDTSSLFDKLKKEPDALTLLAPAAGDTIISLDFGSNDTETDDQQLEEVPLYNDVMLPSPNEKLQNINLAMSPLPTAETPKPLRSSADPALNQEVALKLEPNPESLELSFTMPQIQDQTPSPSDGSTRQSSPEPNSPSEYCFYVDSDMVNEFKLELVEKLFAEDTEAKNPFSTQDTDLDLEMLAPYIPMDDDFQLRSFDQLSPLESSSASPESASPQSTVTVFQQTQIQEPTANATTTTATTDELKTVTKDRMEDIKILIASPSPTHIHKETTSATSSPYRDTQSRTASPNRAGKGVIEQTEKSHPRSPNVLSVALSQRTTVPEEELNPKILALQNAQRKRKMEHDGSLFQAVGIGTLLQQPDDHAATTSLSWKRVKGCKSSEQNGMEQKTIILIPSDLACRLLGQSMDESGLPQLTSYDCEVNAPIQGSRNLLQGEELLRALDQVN
Observation Type: pIC50
Answer as the number alone; pIC50 is minus log10 of concentration in mol/L.

I would be grateful if you could share the reported pIC50 for O=C(C(O)c1ccc(O)cc1)n1cc(-c2ccc(O)cc2)c(-c2ccc(O)cc2)c1 (stereo unspecified) [7-(R/S)-HYDROXYLAMELLARIN A] .
4.64
